biological target: Cholinesterase (Equus caballus, UniProt P81908)
Sequence (P81908 whole entry): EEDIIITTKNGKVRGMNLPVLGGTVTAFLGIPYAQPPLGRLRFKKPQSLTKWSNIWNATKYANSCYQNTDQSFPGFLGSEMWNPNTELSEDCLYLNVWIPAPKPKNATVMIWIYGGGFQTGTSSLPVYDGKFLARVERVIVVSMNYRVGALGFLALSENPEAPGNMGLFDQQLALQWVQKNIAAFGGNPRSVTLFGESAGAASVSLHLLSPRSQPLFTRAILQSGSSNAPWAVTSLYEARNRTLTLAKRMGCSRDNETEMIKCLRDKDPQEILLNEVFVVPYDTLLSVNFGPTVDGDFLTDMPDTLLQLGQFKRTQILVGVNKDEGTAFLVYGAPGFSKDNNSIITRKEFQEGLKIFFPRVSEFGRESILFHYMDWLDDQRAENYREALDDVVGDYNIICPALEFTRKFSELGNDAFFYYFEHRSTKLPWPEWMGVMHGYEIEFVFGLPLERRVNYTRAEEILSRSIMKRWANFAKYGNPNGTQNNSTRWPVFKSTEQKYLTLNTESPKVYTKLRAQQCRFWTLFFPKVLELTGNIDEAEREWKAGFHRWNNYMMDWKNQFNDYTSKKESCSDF
measuredAttribute: IC50

Ask | Looking for the measured IC50 of "Cn1c(=O)c(C(=O)NC2CCN(Cc3ccccc3)CC2)c(O)c2ccccc21" , can you help?
Reply | > 10 µM

Ask | Looking for the measured IC50 of "O=C(NC1CCN(Cc2ccccc2)CC1)c1c(O)c2ccccc2n(Cc2ccccc2)c1=O" , can you help?
Reply | > 10 µM

Ask | Looking for the measured IC50 of "O=C(NCC1CCN(Cc2ccccc2)CC1)c1c(O)c2cc(O)c(O)cc2[nH]c1=O" , can you help?
Reply | > 10 µM

Ask | Looking for the measured IC50 of "COc1cc2[nH]c(=O)c(C(=O)NCC3CCN(Cc4ccccc4)CC3)c(O)c2cc1OC" , can you help?
Reply | > 60 µM

Ask | Looking for the measured IC50 of "COc1cc(Cn2c(=O)c(C(=O)NCC3CCN(Cc4ccccc4)CC3)c(O)c3ccccc32)cc(OC)c1O" , can you help?
Reply | 0.33 µM

Ask | Looking for the measured IC50 of "O=C(NCC1CCN(Cc2ccccc2)CC1)c1c(O)c2cc(O)c(O)cc2n(Cc2ccccc2)c1=O" , can you help?
Reply | > 10 µM

Ask | Looking for the measured IC50 of "COc1cc2c(O)c(C(=O)NCC3CCN(Cc4ccccc4)CC3)c(=O)n(C)c2cc1OC" , can you help?
Reply | > 10 µM

Ask | Looking for the measured IC50 of "O=C(NCC1CCN(Cc2ccccc2)CC1)c1c(O)c2ccccc2[nH]c1=O" , can you help?
Reply | 6.02 µM

Ask | Looking for the measured IC50 of "O=C(NC1CCN(Cc2ccccc2)CC1)c1c(-c2ccccc2)c2ccccc2[nH]c1=O" , can you help?
Reply | > 10 µM
